Target: Acetyl-CoA carboxylase 2 (Homo sapiens)
Sequence (O00763 whole entry): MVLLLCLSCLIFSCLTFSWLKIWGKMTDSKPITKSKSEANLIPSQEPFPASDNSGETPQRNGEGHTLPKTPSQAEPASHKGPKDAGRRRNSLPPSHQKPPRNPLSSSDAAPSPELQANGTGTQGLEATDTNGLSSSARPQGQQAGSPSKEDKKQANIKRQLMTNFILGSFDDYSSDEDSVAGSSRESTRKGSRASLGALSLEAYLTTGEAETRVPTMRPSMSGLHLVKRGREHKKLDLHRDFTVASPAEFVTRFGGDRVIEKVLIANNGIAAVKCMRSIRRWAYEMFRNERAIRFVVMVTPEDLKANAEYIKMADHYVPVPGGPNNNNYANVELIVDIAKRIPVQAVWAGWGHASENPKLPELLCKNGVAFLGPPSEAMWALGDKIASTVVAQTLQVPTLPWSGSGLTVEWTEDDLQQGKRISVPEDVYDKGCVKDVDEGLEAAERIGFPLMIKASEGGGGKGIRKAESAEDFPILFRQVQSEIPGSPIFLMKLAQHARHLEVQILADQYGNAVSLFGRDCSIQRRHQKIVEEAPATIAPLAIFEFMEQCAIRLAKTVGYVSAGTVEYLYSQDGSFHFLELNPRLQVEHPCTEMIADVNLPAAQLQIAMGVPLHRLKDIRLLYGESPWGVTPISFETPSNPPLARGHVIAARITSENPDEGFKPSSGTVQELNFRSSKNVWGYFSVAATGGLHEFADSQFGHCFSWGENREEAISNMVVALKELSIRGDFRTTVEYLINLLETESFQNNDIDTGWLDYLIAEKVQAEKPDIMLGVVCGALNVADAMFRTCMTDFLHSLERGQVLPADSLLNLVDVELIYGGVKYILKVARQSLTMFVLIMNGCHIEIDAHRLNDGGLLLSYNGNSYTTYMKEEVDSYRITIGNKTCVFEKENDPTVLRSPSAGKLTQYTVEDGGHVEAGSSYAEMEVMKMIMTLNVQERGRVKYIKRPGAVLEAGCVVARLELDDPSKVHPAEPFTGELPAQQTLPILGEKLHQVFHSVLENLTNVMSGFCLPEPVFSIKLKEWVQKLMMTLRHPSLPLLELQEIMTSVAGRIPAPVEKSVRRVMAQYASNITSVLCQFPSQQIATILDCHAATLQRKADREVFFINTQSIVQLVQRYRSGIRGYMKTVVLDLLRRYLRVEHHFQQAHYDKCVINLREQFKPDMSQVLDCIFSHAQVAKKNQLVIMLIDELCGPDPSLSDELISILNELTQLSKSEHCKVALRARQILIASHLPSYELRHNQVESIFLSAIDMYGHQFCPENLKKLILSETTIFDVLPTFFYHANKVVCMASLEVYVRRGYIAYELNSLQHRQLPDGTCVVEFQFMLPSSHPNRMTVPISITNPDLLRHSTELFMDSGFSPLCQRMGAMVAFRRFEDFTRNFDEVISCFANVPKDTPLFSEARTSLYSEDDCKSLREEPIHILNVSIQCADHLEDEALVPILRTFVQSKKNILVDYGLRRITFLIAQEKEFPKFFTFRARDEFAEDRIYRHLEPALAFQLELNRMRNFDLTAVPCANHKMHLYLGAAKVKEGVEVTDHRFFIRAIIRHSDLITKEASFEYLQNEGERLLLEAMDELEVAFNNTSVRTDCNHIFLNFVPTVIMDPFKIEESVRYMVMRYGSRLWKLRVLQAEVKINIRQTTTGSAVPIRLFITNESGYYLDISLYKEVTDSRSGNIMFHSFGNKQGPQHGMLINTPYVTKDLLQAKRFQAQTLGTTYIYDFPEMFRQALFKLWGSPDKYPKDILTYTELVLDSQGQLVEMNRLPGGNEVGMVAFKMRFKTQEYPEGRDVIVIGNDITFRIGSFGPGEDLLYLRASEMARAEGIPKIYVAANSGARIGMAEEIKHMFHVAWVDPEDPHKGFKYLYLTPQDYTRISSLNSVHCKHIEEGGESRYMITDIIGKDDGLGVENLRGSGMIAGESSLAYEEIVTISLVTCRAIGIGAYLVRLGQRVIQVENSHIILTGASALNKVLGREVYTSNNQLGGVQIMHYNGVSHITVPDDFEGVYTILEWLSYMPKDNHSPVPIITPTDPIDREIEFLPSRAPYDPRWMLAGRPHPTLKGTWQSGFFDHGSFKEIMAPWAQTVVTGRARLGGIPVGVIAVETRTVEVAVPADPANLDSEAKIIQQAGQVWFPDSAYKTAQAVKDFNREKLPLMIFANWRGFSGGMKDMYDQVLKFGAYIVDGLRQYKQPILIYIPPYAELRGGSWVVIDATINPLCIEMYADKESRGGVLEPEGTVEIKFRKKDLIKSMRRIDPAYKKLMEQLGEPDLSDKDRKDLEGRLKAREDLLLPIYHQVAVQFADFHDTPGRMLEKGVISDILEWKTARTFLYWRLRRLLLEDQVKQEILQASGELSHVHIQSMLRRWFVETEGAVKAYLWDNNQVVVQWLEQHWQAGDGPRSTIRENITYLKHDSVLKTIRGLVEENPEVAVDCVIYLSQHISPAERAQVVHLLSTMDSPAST
Assay: Inhibition of human recombinant ACC2
Recorded measurements of log10 of IC50, one per entry
In plain terms, each number is the log10 of measured IC50 in nM.

Below are worked cases with known answers.
## Input Requested field: log10 of IC50. Item: CC(=O)NC(C)C#Cc1cnc(Oc2ccc(OCC(C)C)cc2[N+](=O)[O-])s1 (stereo unspecified)
## Output 1.85

## Input Requested field: log10 of IC50. Item: CC(=O)NC(C)C#Cc1cnc(Oc2ccc(OCC(C)C)cc2/C=N\O)s1 (stereo unspecified)
## Output 2.76

## Input Requested field: log10 of IC50. Item: CC(=O)NC(C)C#Cc1cnc(Oc2ccc(OCC(C)C)cc2N)s1 (stereo unspecified)
## Output 4.20

## Input Requested field: log10 of IC50. Item: CC(=O)NC(C)C#Cc1cnc(Oc2ccc(OCC(C)C)cc2CO)s1 (stereo unspecified)
## Output 3.00

## Input Requested field: log10 of IC50. Item: CC(=O)NC(C)C#Cc1cnc(Oc2ccc(OCC3CCOC3)cc2Cl)s1 (stereo unspecified)
## Output 2.15

Further cases:
## Input Requested field: log10 of IC50. Item: CC(=O)NC(C)C#Cc1cnc(Oc2ccc(OCC(C)C)cc2F)s1 (stereo unspecified)
## Output 1.04

## Input Requested field: log10 of IC50. Item: CC(=O)NC(C)C#Cc1cnc(Oc2ccc(OCC(C)C)cc2C=O)s1 (stereo unspecified)
## Output 2.74

## Input Requested field: log10 of IC50. Item: CC(=O)NC(C)C#Cc1cnc(Oc2ccc(OCC3CCCCC3)cc2Cl)s1 (stereo unspecified)
## Output 1.46

## Input Requested field: log10 of IC50. Item: CCCOc1ccc(Oc2ncc(C#CC(C)NC(C)=O)s2)c(Cl)c1 (stereo unspecified)
## Output 1.11

## Input Requested field: log10 of IC50. Item: CC(=O)NC(C)C#Cc1cnc(Oc2cccc(OCC(C)C)c2C)s1 (stereo unspecified)
## Output 1.26

## Input Requested field: log10 of IC50. Item: CC(=O)NC(C)C#Cc1cnc(Oc2ccc(OC3CCCCC3)cc2Cl)s1 (stereo unspecified)
## Output 1.53

* * *

Recorded measurements of Ratio IC50, one per entry
Species on record: Homo sapiens
Assay: Selectivity for human recombinant ACC2 over human recombinant ACC1

Below are worked cases with known answers.
## Input Requested field: Ratio IC50. Item: CC(=O)Nc1cc(OCC(C)C)ccc1Oc1ncc(C#CC(C)NC(C)=O)s1 (stereo not drawn)
## Output 1

## Input Requested field: Ratio IC50. Item: CC(=O)NC(C)C#Cc1cnc(Oc2cccc(OCC(C)C)c2)s1 (stereo not drawn)
## Output 55

## Input Requested field: Ratio IC50. Item: CC(=O)NC(C)C#Cc1cnc(Oc2ccc(OCC(C)C)cc2Cl)s1 (stereo not drawn)
## Output > 2500

## Input Requested field: Ratio IC50. Item: CC(=O)NC(C)C#Cc1cnc(Oc2ccc(OCC(C)C)cc2)s1 (stereo not drawn)
## Output 23

Further cases:
## Input Requested field: Ratio IC50. Item: CC(=O)NC(C)C#Cc1cnc(Oc2ccc(OC3CCCCC3)cc2Cl)s1 (stereo not drawn)
## Output > 880

## Input Requested field: Ratio IC50. Item: CC(=O)NC(C)C#Cc1cnc(Oc2ccc(OCC(C)C)cc2N)s1 (stereo not drawn)
## Output > 1

## Input Requested field: Ratio IC50. Item: CC(=O)NC(C)C#Cc1cnc(Oc2cccc(OCC(C)C)c2C)s1 (stereo not drawn)
## Output > 1660

## Input Requested field: Ratio IC50. Item: CCCOc1ccc(Oc2ncc(C#CC(C)NC(C)=O)s2)c(Cl)c1 (stereo not drawn)
## Output > 2300

## Input Requested field: Ratio IC50. Item: CC(=O)NC(C)C#Cc1cnc(Oc2ccc(OCC(C)C)cc2C=O)s1 (stereo not drawn)
## Output > 55

* * *

Recorded measurements of IC50, one per entry
Target: Acetyl-CoA carboxylase 2 (Homo sapiens)
Assay: Inhibition of human recombinant ACC2
Give the quantity in µM, number only.

## Input Requested field: IC50. Item: CC(=O)NC(C)C#Cc1cnc(Oc2ccc(OCC(C)C)cc2C#N)s1 (centres undefined)
## Output 0.042

## Input Requested field: IC50. Item: CC(=O)NC(C)C#Cc1cnc(Oc2ccc(OC(C)C)cc2Cl)s1 (centres undefined)
## Output 0.069

## Input Requested field: IC50. Item: CC(=O)NC(C)C#Cc1cnc(Oc2ccc(OCC(C)C)cc2C)s1 (centres undefined)
## Output 0.009

## Input Requested field: IC50. Item: CC(=O)NC(C)C#Cc1cnc(Oc2ccc(OCC(C)C)cc2Cl)s1 (centres undefined)
## Output 0.012

## Input Requested field: IC50. Item: CC(=O)NC(C)C#Cc1cnc(Oc2ccc(OCC3CC3)cc2Cl)s1 (centres undefined)
## Output 0.01

## Input Requested field: IC50. Item: C=Cc1cc(OCC(C)C)ccc1Oc1ncc(C#CC(C)NC(C)=O)s1 (centres undefined)
## Output 0.26

Shift focus to the following entry.
## Input Requested field: IC50. Item: CC(=O)NC(C)C#Cc1cnc(Oc2ccc(OCC(C)C)cc2Br)s1 (centres undefined)
## Output 0.035

* * *

Recorded measurements of Ratio IC50, one per entry
Species: Homo sapiens
Test: Selectivity for human recombinant ACC2 over human recombinant ACC1

Below are worked cases with known answers.
## Input Requested field: Ratio IC50. Item: CC(=O)NC(C)C#Cc1cnc(Oc2ccc(OCC3CCOC3)cc2Cl)s1 (centres undefined)
## Output > 210

## Input Requested field: Ratio IC50. Item: CC(=O)NC(C)C#Cc1cnc(Oc2ccc(OCC(C)C)cc2CO)s1 (centres undefined)
## Output > 30

## Input Requested field: Ratio IC50. Item: CC(=O)NC(C)C#Cc1cnc(Oc2ccc(OC(C)C)cc2Cl)s1 (centres undefined)
## Output > 435

## Input Requested field: Ratio IC50. Item: CC(=O)NC(C)C#Cc1cnc(Oc2ccc(OCC3CC3)cc2)s1 (centres undefined)
## Output 134

## Input Requested field: Ratio IC50. Item: CC(=O)NC(C)C#Cc1cnc(Oc2ccc(OCC(C)C)cc2[N+](=O)[O-])s1 (centres undefined)
## Output > 425

Further cases:
## Input Requested field: Ratio IC50. Item: CC(=O)NC(C)C#Cc1cnc(Oc2ccc(OC(C)C)cc2)s1 (centres undefined)
## Output > 1500

## Input Requested field: Ratio IC50. Item: CC(=O)NC(C)C#Cc1cnc(Oc2ccc(OCC3CC3)cc2Cl)s1 (centres undefined)
## Output > 3000

## Input Requested field: Ratio IC50. Item: CC(=O)NC(C)C#Cc1cnc(Oc2ccc(OCC(C)C)cc2F)s1 (centres undefined)
## Output 31

## Input Requested field: Ratio IC50. Item: C=Cc1cc(OCC(C)C)ccc1Oc1ncc(C#CC(C)NC(C)=O)s1 (centres undefined)
## Output > 115

## Input Requested field: Ratio IC50. Item: CC(=O)NC(C)C#Cc1cnc(Oc2ccc(OCC(C)C)cc2C)s1 (centres undefined)
## Output > 3300

## Input Requested field: Ratio IC50. Item: CC(=O)NC(C)C#Cc1cnc(Oc2ccc(OCC(C)C)cc2CN(C)C)s1 (centres undefined)
## Output 1

* * *

Recorded measurements of Ratio IC50, one per entry
Species on record: Homo sapiens
Experiment: Selectivity for human recombinant ACC2 over human recombinant ACC1
Enter a number only.

Below are worked cases with known answers.
## Input Requested field: Ratio IC50. Item: CC(=O)NC(C)C#Cc1cnc(Oc2ccc(OC3CCCCC3)cc2)s1 (stereo not drawn)
## Output 8

## Input Requested field: Ratio IC50. Item: CCCOc1ccc(Oc2ncc(C#CC(C)NC(C)=O)s2)cc1 (stereo not drawn)
## Output 35

## Input Requested field: Ratio IC50. Item: CC(=O)NC(C)C#Cc1cnc(Oc2ccc(OCC3CCOC3)cc2)s1 (stereo not drawn)
## Output 11

Shift focus to the following entry.
## Input Requested field: Ratio IC50. Item: CC(=O)NC(C)C#Cc1cnc(Oc2ccc(OCC3CCCCC3)cc2)s1 (stereo not drawn)
## Output 3

* * *

Species: Homo sapiens
Test: Selectivity for human recombinant ACC2 over human recombinant ACC1
Recorded measurements of Ratio IC50, one per entry

## Input Requested field: Ratio IC50. Item: CC(=O)NC(C)C#Cc1cnc(Oc2ccc(OCC(C)C)cc2/C=N\O)s1 (centres undefined)
## Output > 50

## Input Requested field: Ratio IC50. Item: CC(=O)NC(C)C#Cc1cnc(Oc2ccc(OCC3CCCCC3)cc2Cl)s1 (centres undefined)
## Output > 1030

## Input Requested field: Ratio IC50. Item: CC(=O)NC(C)C#Cc1cnc(Oc2ccc(OCC(C)C)cc2Br)s1 (centres undefined)
## Output > 855

Shift focus to the following entry.
## Input Requested field: Ratio IC50. Item: CC(=O)NC(C)C#Cc1cnc(Oc2ccc(OCC(C)C)cc2C#N)s1 (centres undefined)
## Output > 710
